The measured values listed here are drawn from patent US8481540B2.

tested on: B cells in human blood; experiment: Inhibition of B cell activation in whole blood measured by CD69 expression; type: cell-based; conditions: CD69-positive, CD20-positive cells after anti-IgM stimulation, human whole blood, 20 hours, read-out: Human Whole Blood
pIC50: −log10 of the molar value.

| COMPOUND | pIC50 |
| --- | --- |
| COC[C@@H](O)COc1ccc(Nc2cc(-c3cccc(-n4ncc5cc(C(C)(C)C)cc(F)c5c4=O)c3CO)nn(C)c2=O)nc1 [I-17] | 7.39 |
| CN1CCN(Cc2cnc(Nc3cc(-c4cccc(-n5ncc6cc(C(C)(C)C)cc(F)c6c5=O)c4CO)nn(C)c3=O)cn2)CC1 [I-37] | 7.08 |
| CCNC(C)(C)c1ccc(Nc2cc(-c3cccc(-n4ncc5cc(C(C)(C)C)cc(F)c5c4=O)c3CO)nn(C)c2=O)nc1 [I-1] | 7.72 |
| Cn1nc(-c2cccc(-n3ncc4cc(C(C)(C)C)cc(F)c4c3=O)c2CO)cc(Nc2cnc(CNC3CCC3)cn2)c1=O [I-35] | 7.13 |
| Cn1nc(-c2cccc(-n3ncc4cc(C(C)(C)C)cc(F)c4c3=O)c2CO)cc(Nc2ccc(C3CCN(CC(F)(F)F)CC3)cn2)c1=O [I-90] | 6.47 |
| CN1CCC[C@@H]1c1ccc(Nc2cc(-c3cccc(-n4ncc5cc(C(C)(C)C)cc(F)c5c4=O)c3CO)nn(C)c2=O)nc1 [I-19] | 8.15 |
| CCOC(=O)N1CCN(c2ccc(Nc3cc(-c4cccc(-n5ncc6cc(C(C)(C)C)cc(F)c6c5=O)c4CO)nn(C)c3=O)nc2)CC1 [I-86] | 6.39 |
| COC1CN(Cc2ccc(Nc3cc(-c4cccc(-n5ncc6cc(C(C)(C)C)cc(F)c6c5=O)c4CO)nn(C)c3=O)nc2)C1 [I-4] | 6.91 |
| CN1CC[C@@H](c2ccc(Nc3cc(-c4cccc(-n5ncc6cc(C(C)(C)C)cc(F)c6c5=O)c4CO)nn(C)c3=O)nc2)C1 [I-32] | 7.64 |
| CN1CCC(c2ccc(Nc3cc(-c4cccc(-n5ncc6cc(C(C)(C)C)cc(F)c6c5=O)c4CO)nn(C)c3=O)nc2)C1 (centres unmarked) [I-28] | 8.22 |
| CC(=O)N1CCC(c2ccc(Nc3cc(-c4cccc(-n5ncc6cc(C(C)(C)C)cc(F)c6c5=O)c4CO)nn(C)c3=O)nc2)CC1 [I-63] | 6.72 |
| CN(CCO)C(=O)c1ccc(Nc2cc(-c3cccc(-n4ncc5cc(C(C)(C)C)cc(F)c5c4=O)c3CO)nn(C)c2=O)nc1 [I-52] | 7.57 |
| CN1CC2(C1)CN(c1ccc(Nc3cc(-c4cccc(-n5ncc6cc(C(C)(C)C)cc(F)c6c5=O)c4CO)nn(C)c3=O)nc1)C2 [I-22] | 7.48 |
| Cn1nc(-c2cccc(-n3ccc4cc(C(C)(C)C#N)cc(F)c4c3=O)c2CO)cc(Nc2ccc(C(=O)N3CCOCC3)cn2)c1=O [I-15] | 6.79 |

====

test system: B cells in human blood; assay: Inhibition of B cell activation in whole blood measured by CD69 expression; format: cell-based; conditions: Homo sapiens, 20 h, read-out: Human Whole Blood, CD69-positive, CD20-positive cells after anti-IgM stimulation, human whole blood, 20 hours
pIC50: −log10 of the molar value.
PARAMETER: pIC50

| QUERY SMILES | MEASURED NUMBER |
| --- | --- |
| CN(C)C(=O)c1ccc(Nc2cc(-c3cccc(-n4ncc5cc(C(C)(C)C)cc(F)c5c4=O)c3CO)nn(C)c2=O)nc1 | 7.72 |

====

System: B cells in human blood
Assay: Inhibition of B cell activation in whole blood measured by CD69 expression
Assay type: cell-based
Conditions: Homo sapiens, 20 h, read-out: Human Whole Blood
Description: Inhibition of B Cell Activation in Whole Blood Measured by CD69 Expression A procedure to test the ability of Btk inhibitors to suppress B cell receptor-mediated activation of B cells in human blood is as follows: […] Using appropriate excitation and emission wavelengths for the fluorophores used, data are acquired and percent positive cell values are obtained using Cell Quest Software. Results are initially analyzed by FACS analysis software (Flow Jo). […]
Entries and their IC50 values follow.
PARAMETER: IC50 (nM)

| QUERY SMILES | MEASURED NUMBER |
| --- | --- |
| Cn1nc(-c2cccc(-n3ncc4cc(C(C)(C)C)cc(F)c4c3=O)c2CO)cc(Nc2ccc(C(=O)N3CCOCC3)cn2)c1=O | 14 |
| CN1CCC(c2ccc(Nc3cc(-c4cccc(-n5ncc6cc(C(C)(C)C)cc(F)c6c5=O)c4CO)nn(C)c3=O)nc2)CC1 | 4 |
| Cn1nc(-c2cccc(-n3ncc4cc(C(C)(C)C)cc(F)c4c3=O)c2CO)cc(Nc2ccc(S(C)(=O)=O)cn2)c1=O | 45 |

====

melting point by entry:
PARAMETER: melting point

| COMPOUND | PARAMETER | RESULT |
| --- | --- | --- |
| CN1CCN(Cc2cnc(Nc3cc(-c4cccc(-n5ncc6cc(C(C)(C)C)cc(F)c6c5=O)c4CO)nn(C)c3=O)cn2)CC1 [I-37] | melting point | 215 to 218 °C |
| CN1CCn2nc(Nc3cc(-c4cccc(-n5ncc6cc(C(C)(C)C)cc(F)c6c5=O)c4CO)nn(C)c3=O)cc2C1 [I-59] | melting point | 188 to 193 °C |
| Cn1nc(-c2cccc(-n3ncc4cc(C(C)(C)C)cc(F)c4c3=O)c2CO)cc(Nc2ccn(CC(C)(C)O)n2)c1=O [I-70] | melting point | 165 to 170 °C |
| Cn1nc(-c2cccc(-n3ncc4cc(C(C)(C)C)cc(F)c4c3=O)c2CO)cc(Nc2ccc(CN3CCC3)cn2)c1=O [I-7] | melting point | 160 to 163 °C |
| CN1CCC(c2ccc(Nc3cc(-c4cccc(-n5ncc6cc(C(C)(C)C)cc(F)c6c5=O)c4CO)nn(C)c3=O)nn2)CC1 [I-40] | melting point | 260 to 265 °C |
| CN1C[C@@H]2C[C@H]1CN2Cc1ccc(Nc2cc(-c3cccc(-n4ncc5cc(C(C)(C)C)cc(F)c5c4=O)c3CO)nn(C)c2=O)nc1 [I-43] | melting point | 183 to 186 °C |
| CN(C)Cc1ccc(Nc2cc(-c3cccc(-n4ncc5cc(C(C)(C)C)cc(F)c5c4=O)c3CO)nn(C)c2=O)nc1 [I-8] | melting point | 170 to 174 °C |
| CN1[C@@H]2CC[C@H]1CN(Cc1ccc(Nc3cc(-c4cccc(-n5ncc6cc(C(C)(C)C)cc(F)c6c5=O)c4CO)nn(C)c3=O)nc1)C2 [I-5] | melting point | 162 to 165 °C |
| Cn1nc(-c2cccc(-n3ncc4cc(C(C)(C)C)cc(F)c4c3=O)c2CO)cc(Nc2ccc(CN3C[C@@H]4C[C@H]3CN4)cn2)c1=O [I-84] | melting point | > 250 °C |
| CCNC(C)(C)c1ccc(Nc2cc(-c3cccc(-n4ncc5cc(C(C)(C)C)cc(F)c5c4=O)c3CO)nn(C)c2=O)nc1 [I-1] | melting point | 229 to 233 °C |
| CN(C)CC(C)(C)Oc1ccc(Nc2cc(-c3cccc(-n4ncc5cc(C(C)(C)C)cc(F)c5c4=O)c3CO)nn(C)c2=O)nc1 [I-6] | melting point | 136 to 144 °C |
| CCN1CCN(c2ccc(Nc3cc(-c4cccc(-n5ncc6cc(C(C)(C)C)cc(F)c6c5=O)c4CO)nn(C)c3=O)nc2)CC1 [I-69] | melting point | 245 to 247 °C |
| COC1CN(Cc2ccc(Nc3cc(-c4cccc(-n5ncc6cc(C(C)(C)C)cc(F)c6c5=O)c4CO)nn(C)c3=O)nc2)C1 [I-4] | melting point | 140 to 142 °C |
| Cn1nc(-c2cccc(-n3ncc4cc(C(C)(C)C)cc(F)c4c3=O)c2CO)cc(Nc2cnc(C(F)(F)F)cn2)c1=O [I-11] | melting point | 250 to 254 °C |
| CN1CCN(c2cnc(Nc3cc(-c4cccc(-n5ncc6cc(C(C)(C)C)cc(F)c6c5=O)c4CO)nn(C)c3=O)cn2)CC1 [I-34] | melting point | 235 to 240 °C |
| Cn1nc(-c2cccc(-n3ncc4cc(C(C)(C)C)cc(F)c4c3=O)c2CO)cc(Nc2cnc(CNC3CCC3)cn2)c1=O [I-35] | melting point | 163 to 167 °C |
| CN(C)CCOc1cnc(Nc2cc(-c3cccc(-n4ncc5cc(C(C)(C)C)cc(F)c5c4=O)c3CO)nn(C)c2=O)cn1 [I-36] | melting point | 185 to 190 °C |
| Cn1nc(-c2cccc(-n3ncc4cc(C(C)(C)C)cc(F)c4c3=O)c2CO)cc(Nc2ccc(S(C)(=O)=O)cn2)c1=O [I-3] | melting point | 225 to 230 °C |
| COCCNCc1ccc(Nc2cc(-c3cccc(-n4ncc5cc(C(C)(C)C)cc(F)c5c4=O)c3CO)nn(C)c2=O)nc1 [I-42] | melting point | 108 to 110 °C |
| Cn1nc(-c2cccc(-n3ncc4cc(C(C)(C)C)cc(F)c4c3=O)c2CO)cc(Nc2ccn(C[C@@H](O)CO)n2)c1=O [I-68] | melting point | 245 to 250 °C |
| CN(C)CC(C)(C)Oc1ccc(Nc2cc(-c3cccc(-n4ncc5cc(C(C)(C)C)cc(F)c5c4=O)c3CO)nn(C)c2=O)nn1 [I-39] | melting point | 140 to 145 °C |
| Cn1nc(-c2cccc(-n3ncc4cc(C(C)(C)C)cc(F)c4c3=O)c2CO)cc(Nc2cnc([C@H](O)CO)cn2)c1=O [I-57] | melting point | 218 to 224 °C |
| Cn1nc(Nc2cc(-c3cccc(-n4ncc5cc(C(C)(C)C)cc(F)c5c4=O)c3CO)nn(C)c2=O)cc1CN1CCC1 [I-58] | melting point | 214 to 217 °C |
| CN(C)CC(C)(C)Oc1cnc(Nc2cc(-c3cccc(-n4ncc5cc(C(C)(C)C)cc(F)c5c4=O)c3CO)nn(C)c2=O)cn1 [I-38] | melting point | 235 to 240 °C |
| Cn1nc(-c2cccc(-n3ncc4cc(C(C)(C)C)cc(F)c4c3=O)c2CO)cc(Nc2cc3n(n2)CCN(C2COC2)C3)c1=O [I-60] | melting point | 180 to 185 °C |
